- target-entity: T1, human ROR1-hFc fusion protein (extracellular domain) (human)
- T1 construct: Whole entry 'human ROR1-Fc (CHO)'; also called hROR1; huROR1-Fc
- T1 sequence (chain, as listed by the source limits assumed): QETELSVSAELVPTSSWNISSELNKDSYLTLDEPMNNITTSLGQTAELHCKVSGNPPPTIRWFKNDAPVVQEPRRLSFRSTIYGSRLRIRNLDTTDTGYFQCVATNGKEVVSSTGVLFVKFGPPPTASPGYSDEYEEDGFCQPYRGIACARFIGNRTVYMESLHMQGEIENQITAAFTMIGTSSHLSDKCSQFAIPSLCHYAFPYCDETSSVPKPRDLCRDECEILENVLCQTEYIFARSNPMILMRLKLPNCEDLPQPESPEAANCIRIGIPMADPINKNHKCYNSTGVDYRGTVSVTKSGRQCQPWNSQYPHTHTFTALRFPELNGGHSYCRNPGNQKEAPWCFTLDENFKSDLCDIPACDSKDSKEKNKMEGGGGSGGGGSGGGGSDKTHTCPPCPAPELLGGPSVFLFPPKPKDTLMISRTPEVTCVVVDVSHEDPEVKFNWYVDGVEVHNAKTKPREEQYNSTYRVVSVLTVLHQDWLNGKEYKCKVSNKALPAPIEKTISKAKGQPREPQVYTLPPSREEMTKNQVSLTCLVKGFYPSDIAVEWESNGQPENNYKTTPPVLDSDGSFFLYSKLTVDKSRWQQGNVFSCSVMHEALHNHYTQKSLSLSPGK
- experiment-notes: SPR, ROR1-hFc on chip
Attribute: Kd
recorded-metric: Kd (nM)

| binder | endpoint-result |
| --- | --- |
| P3A1-P3A1-Ox-MMAE (VNAR, C-terminal aminoxy oxime-linked to benzaldehyde PEG4 MMAE) TRVDQTPRTATKETGESLTINCVLTDTSYGLYSTSWFRKNPGTTDWERMSIGGRYVESVNKGAKSFSLRIKDLTVADSATYYCKAREARHPWLRQWYDGAGTVLTVNGGGGSGGGGSGGGGSGGGGSGGGGSTRVDQTPRTATKETGESLTINCVLTDTSYGLYSTSWFRKNPGTTDWERMSIGGRYVESVNKGAKSFSLRIKDLTVADSATYYCKAREARHPWLRQWYDGAGTVLTVNQASGAHHHHHHGAEFEQKLISEEDL | 0.78 |
| P3A1-P3A1-Ox-vcMMAE (VNAR, C-terminal aminoxy oxime-linked to benzaldehyde PEG2 vc PAB MMAE) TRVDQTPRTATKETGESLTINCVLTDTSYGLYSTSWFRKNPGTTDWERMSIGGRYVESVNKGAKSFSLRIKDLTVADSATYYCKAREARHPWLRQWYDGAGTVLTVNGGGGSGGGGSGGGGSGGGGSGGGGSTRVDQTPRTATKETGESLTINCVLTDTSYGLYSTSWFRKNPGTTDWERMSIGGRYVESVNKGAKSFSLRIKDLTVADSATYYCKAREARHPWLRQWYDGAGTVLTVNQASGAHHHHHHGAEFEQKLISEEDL | 1.43 |
| P3A1-P3A1-S-mal-vcMMAE (VNAR, C-terminal thiol conjugated to MC vc PAB MMAE) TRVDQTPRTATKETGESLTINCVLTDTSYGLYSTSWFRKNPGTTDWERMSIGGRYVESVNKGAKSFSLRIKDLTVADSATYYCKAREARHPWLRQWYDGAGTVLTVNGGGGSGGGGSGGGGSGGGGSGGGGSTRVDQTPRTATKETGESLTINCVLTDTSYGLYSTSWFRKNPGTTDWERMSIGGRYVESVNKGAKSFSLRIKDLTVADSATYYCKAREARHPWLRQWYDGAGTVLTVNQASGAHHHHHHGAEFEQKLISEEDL | 0.59 |
| P3A1-[G4S]5-P3A1 his myc (VNAR, VNAR homodimer by genetic fusion; also called P3A1-P3A1; P3A1 dimer) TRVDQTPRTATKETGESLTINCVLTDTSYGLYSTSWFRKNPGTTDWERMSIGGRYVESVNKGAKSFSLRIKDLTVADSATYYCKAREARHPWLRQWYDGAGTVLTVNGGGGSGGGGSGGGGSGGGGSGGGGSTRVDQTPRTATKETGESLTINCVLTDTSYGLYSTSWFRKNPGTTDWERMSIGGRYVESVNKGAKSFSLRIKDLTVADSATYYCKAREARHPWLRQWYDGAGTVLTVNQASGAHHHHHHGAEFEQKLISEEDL | 1.61 |
